Data origin: patent US20230365675A1

# experimental_target: Mutant CD33-GFP M4 (R122D) on 293FT cells (UniProt P20138)
# Sequence (P20138 18-364 R122D): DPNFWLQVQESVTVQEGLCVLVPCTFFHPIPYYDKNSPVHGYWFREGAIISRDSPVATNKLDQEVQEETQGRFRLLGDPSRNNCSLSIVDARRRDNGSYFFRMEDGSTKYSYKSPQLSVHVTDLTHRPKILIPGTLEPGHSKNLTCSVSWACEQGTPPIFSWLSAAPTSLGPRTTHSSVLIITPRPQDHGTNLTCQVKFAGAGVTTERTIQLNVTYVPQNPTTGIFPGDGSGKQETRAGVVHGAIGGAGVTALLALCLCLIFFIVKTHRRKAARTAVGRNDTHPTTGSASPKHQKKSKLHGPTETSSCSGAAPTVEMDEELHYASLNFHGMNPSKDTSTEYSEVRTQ
# assay: FACS, mutant CD33-GFP on 293FT cells
quantity: FACS binding data
When you answer, write just the number.

Enquiry: Which FACS binding data is listed for sdCD33_10 (VHH) VHH: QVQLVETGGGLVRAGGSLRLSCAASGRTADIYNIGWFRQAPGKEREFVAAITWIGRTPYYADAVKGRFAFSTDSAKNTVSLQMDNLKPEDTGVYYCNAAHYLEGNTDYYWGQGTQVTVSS ?
Return: 21.1

Enquiry: Please give the result for sdCD33_8 (VHH, sdAb from a naive llama phage library; also called 424; sdAb424) VHH: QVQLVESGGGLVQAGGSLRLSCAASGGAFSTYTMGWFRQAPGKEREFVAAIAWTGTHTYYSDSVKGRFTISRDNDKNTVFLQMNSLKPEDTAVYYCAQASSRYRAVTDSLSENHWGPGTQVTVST too.
Return: 98.6

Enquiry: Please give the result for sdCD33_11 (VHH, sdAb from a naive llama phage library; also called 430; sdAb430) VHH: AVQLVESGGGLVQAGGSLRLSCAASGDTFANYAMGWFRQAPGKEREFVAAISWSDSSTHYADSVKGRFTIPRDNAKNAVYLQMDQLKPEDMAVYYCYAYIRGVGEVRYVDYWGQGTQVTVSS too.
Return: 98.4

Enquiry: Please give the result for sdCD33_6 (VHH, sdAb from a naive llama phage library; also called 416; sdAb416) VHH: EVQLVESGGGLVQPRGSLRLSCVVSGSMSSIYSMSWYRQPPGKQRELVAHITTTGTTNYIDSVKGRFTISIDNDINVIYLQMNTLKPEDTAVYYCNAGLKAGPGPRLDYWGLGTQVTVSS too.
Return: 99.3

Enquiry: Please give the result for sdCD33_4 (VHH) VHH: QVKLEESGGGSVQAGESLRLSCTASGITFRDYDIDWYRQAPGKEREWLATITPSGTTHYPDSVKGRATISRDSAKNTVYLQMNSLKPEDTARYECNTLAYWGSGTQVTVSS too.
Return: 6.01

Enquiry: Please give the result for sdCD33_2 (VHH) VHH: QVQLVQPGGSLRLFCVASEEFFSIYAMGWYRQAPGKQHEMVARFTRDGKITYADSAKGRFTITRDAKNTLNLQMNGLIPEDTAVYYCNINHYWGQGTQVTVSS too.
Return: 1.43
